Just for reference, patent US20260049134A1 is where these values come from.

TARGET SYSTEM: T1, PTPRG, endogenous in H929 multiple myeloma cells (human, UniProt P23470 20-1445)
T1 construct: Native protein on H929 cells (flow cytometry, siRNA knockdown) and in H929 lysates (IP/MS); also called phosphatase receptor type γ
T1 sequence (P23470 20-1445 limits assumed): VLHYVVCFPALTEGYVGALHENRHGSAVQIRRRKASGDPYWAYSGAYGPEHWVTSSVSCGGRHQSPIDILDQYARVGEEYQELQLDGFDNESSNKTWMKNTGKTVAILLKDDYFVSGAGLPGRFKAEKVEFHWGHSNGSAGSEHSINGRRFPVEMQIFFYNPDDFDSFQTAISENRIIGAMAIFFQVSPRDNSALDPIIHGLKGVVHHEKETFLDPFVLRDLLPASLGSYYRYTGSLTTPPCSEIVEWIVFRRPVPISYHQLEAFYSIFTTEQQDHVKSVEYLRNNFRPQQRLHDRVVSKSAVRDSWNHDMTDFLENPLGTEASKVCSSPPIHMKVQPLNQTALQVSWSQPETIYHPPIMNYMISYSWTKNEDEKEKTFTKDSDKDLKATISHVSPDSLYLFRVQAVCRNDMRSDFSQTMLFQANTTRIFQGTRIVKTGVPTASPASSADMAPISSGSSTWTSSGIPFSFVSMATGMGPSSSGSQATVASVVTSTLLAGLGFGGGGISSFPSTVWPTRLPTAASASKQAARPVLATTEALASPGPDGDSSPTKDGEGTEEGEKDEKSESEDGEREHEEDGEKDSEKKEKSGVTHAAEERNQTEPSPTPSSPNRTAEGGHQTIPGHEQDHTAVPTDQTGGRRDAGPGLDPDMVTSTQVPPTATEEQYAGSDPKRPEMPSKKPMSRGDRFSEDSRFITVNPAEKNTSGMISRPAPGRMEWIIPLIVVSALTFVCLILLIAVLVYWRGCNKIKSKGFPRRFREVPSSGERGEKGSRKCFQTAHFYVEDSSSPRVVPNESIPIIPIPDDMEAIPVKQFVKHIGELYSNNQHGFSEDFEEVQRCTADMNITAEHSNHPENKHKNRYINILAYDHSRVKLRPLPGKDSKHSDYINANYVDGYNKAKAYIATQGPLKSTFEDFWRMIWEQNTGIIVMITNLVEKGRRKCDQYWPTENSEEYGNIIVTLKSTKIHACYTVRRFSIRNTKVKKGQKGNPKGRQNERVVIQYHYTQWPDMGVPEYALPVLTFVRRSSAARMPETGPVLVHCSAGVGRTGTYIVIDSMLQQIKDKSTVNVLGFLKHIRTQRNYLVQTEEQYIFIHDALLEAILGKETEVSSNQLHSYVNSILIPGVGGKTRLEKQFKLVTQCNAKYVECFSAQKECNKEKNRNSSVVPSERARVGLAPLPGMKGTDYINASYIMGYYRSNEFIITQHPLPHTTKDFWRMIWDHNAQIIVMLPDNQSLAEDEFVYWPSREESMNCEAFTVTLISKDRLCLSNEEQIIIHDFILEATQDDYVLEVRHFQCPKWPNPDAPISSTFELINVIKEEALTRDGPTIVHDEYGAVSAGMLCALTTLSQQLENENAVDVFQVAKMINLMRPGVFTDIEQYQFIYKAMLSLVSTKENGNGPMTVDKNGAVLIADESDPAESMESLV
EXPERIMENTAL PROTOCOL: flow cytometry, H929 + vehicle; None 2.74
PROPERTY: Cells stained (%)

binder="HW-1 chimeric rabbit-human IgG1 LA/LA/PG (antibody, V domains shown, Fc-silenced (L234A/L235A/P329G) IgG1, lambda; Alexa Fluor 647-labeled in single-step flow cytometry; Prototype of cluster C-1) VH: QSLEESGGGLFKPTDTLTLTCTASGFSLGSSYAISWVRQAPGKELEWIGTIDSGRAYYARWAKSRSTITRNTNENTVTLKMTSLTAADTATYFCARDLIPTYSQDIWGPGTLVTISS VL: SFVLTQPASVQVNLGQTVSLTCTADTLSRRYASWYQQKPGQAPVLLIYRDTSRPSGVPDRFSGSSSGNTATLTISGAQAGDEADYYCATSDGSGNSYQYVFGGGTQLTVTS" test_value=99.4
binder="HW-70 chimeric rabbit-human IgG1 LA/LA/PG (antibody, V domains shown, Fc-silenced (L234A/L235A/P329G) IgG1, lambda; Alexa Fluor 647-labeled in single-step flow cytometry; Cluster C-1) VH: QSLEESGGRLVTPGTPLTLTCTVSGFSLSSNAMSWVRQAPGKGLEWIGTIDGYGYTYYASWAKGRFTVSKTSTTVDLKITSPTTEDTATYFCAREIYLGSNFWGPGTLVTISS VL: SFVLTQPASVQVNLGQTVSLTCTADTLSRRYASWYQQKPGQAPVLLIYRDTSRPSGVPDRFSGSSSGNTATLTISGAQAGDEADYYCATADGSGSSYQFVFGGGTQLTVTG" test_value=98.6
binder="HW-25 chimeric rabbit-human IgG1 LA/LA/PG (antibody, V domains shown, Fc-silenced (L234A/L235A/P329G) IgG1, lambda; Alexa Fluor 647-labeled in single-step flow cytometry; Cluster C-1) VH: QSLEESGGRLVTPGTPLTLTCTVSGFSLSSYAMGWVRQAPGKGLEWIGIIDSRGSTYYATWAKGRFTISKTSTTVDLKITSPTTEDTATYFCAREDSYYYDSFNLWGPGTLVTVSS VL: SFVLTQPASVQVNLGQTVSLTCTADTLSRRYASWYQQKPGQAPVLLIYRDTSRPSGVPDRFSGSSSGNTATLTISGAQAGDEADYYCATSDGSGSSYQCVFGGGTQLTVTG" test_value=97.2
